The entries that follow carry IC50 values tested on Protease (Human immunodeficiency virus 1, UniProt Q9YQ12), drawn from several published reports.
API: label(entry) gives met if the entry's IC50 is strictly smaller than 300 nM; on equality or larger values it gives not met.

IC50 under 300 nM? Item: "CC(C)CN(C[C@@H](O)[C@H](Cc1ccccc1)NC(=O)CN(CC(=O)N1CCOCC1)[C@H]1CCOC1)S(=O)(=O)c1ccc(N)cc1"
met

IC50 under 300 nM? Item: "COc1ccc(N(CC(=O)N[C@@H](Cc2ccccc2)[C@@H](O)CN(CC(C)C)S(=O)(=O)c2ccc(CO)cc2)CC(=O)N(C)C)cc1"
not met

IC50 under 300 nM? Item: "C[C@H](NC(=O)CCCCCCCCCCNC(=O)[C@]12CCC(C)(C)C[C@H]1C1=CC[C@@H]3[C@@]4(C)CC[C@H](OC(=O)CCC(=O)O)C(C)(C)[C@@H]4CC[C@@]3(C)[C@]1(C)CC2)C(=O)O"
not met

IC50 under 300 nM? Item: "CC(C)CN(C[C@@H](O)[C@H](Cc1ccccc1)NC(=O)CN[C@H]1CCOC1)S(=O)(=O)c1ccc(OC(F)(F)F)cc1"
met

IC50 under 300 nM? Item: "O=C(N[C@@H](Cc1ccccc1)[C@@H](O)[C@H](O)[C@H](Cc1ccccc1)NC(=O)c1ccc(F)cc1Cl)c1ccc(F)cc1Cl"
not met

IC50 under 300 nM? Item: "CC(C)c1nc(CN(C)C(=O)N[C@H](C(=O)N[C@H](CC[C@H](Cc2ccccc2)NC(=O)OCc2cncs2)Cc2ccccc2)C(C)C)cs1"
met
